pKi: −log10 of the molar value.
For reference, pKi measured on UniProt:P28566:

Look over these answered cases.
NC(=O)C1(N2CCCCC2)CCN(CCCC(=O)c2ccc(F)cc2)CC1 :: < 6.00
CN1CC2c3ccccc3Oc3ccc(Cl)cc3C2C1 (stereo not drawn) :: 7.00 to 8.00
O=C1Cc2cc(CCN3CCN(c4nsc5ccccc45)CC3)c(Cl)cc2N1 :: 6.00 to 7.00
OCCOCCN1CCN(C2=Nc3ccccc3Sc3ccccc32)CC1 :: < 6.00
O=C1NCN(c2ccccc2)C12CCN(CCCC(c1ccc(F)cc1)c1ccc(F)cc1)CC2 :: < 6.00

State its pKi on UniProt:P28566: CN(C)CCOC1=Cc2ccccc2Sc2ccc(Cl)cc21 [Zotepine]
Sequence (P28566 whole entry, species assumed): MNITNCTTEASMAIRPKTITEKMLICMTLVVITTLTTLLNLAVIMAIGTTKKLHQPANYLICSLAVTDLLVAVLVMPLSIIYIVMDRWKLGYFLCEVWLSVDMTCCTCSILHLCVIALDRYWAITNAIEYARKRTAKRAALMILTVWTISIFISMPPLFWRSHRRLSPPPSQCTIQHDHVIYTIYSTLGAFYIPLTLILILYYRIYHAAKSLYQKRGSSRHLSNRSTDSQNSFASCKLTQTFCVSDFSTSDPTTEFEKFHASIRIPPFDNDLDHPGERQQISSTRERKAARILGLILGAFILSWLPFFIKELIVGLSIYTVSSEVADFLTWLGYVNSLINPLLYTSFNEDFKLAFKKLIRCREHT
6.00 to 7.00

====

Read-out record for UniProt:P30939: Ki
Sequence (P30939 whole entry, species assumed): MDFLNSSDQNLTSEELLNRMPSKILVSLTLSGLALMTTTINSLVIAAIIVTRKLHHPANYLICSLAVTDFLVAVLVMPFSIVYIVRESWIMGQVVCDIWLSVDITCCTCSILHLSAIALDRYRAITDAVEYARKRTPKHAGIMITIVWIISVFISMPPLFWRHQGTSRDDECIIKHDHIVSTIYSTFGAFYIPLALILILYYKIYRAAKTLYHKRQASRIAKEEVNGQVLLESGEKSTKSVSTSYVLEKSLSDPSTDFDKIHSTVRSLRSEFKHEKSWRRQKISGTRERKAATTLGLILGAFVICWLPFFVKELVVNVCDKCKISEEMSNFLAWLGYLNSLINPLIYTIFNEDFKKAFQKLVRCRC

NC(=O)C1(N2CCCCC2)CCN(CCCC(=O)c2ccc(F)cc2)CC1 [Pipamperone] :: > 1000 nM

Lab request: please report Ki under test system UniProt:P30939 for CN1CCN(C2=Nc3cc(Cl)ccc3Nc3ccccc32)CC1 [Clozapine]
100 to 1000 nM

====

Target: D1 (Homo sapiens)
Sequence (P21728 whole entry): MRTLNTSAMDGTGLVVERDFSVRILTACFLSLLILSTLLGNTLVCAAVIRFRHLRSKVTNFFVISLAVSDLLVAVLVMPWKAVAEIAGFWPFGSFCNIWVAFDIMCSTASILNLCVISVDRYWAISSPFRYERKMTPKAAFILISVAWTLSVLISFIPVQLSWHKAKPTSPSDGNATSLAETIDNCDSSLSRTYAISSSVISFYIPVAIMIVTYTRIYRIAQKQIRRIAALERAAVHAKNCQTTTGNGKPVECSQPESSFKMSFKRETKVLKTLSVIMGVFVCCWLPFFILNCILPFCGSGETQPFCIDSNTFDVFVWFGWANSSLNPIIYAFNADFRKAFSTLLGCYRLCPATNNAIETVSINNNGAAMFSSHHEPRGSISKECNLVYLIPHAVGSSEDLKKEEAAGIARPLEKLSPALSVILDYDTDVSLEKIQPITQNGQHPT
Test: pKi of test compounds, D1 receptor
// values below are reported Ki

O=C1NCCN1CCN1CCC(c2cn(-c3ccc(F)cc3)c3ccc(Cl)cc23)CC1 :: 10 to 100 nM
CN1CC2c3ccccc3Oc3ccc(Cl)cc3C2C1 (centres unmarked) :: 1 to 10 nM
Cc1nc2c(C)cccn2c(=O)c1CCN1CCC(c2noc3cc(F)ccc23)CC1 :: 10 to 100 nM
CCNC(=O)N1CCN(CCCC(c2ccc(F)cc2)c2ccc(F)cc2)CC1 [Amperozide] :: 100 to 1000 nM

Which Ki reading was recorded for the compound CCN1CCC[C@H]1CNC(=O)c1c(O)c(Cl)cc(Cl)c1OC [Raciopride] ?
> 1000 nM

====

pKi reference
Target: 5HT2C (Homo sapiens, UniProt P28335)
Sequence (P28335 33-458): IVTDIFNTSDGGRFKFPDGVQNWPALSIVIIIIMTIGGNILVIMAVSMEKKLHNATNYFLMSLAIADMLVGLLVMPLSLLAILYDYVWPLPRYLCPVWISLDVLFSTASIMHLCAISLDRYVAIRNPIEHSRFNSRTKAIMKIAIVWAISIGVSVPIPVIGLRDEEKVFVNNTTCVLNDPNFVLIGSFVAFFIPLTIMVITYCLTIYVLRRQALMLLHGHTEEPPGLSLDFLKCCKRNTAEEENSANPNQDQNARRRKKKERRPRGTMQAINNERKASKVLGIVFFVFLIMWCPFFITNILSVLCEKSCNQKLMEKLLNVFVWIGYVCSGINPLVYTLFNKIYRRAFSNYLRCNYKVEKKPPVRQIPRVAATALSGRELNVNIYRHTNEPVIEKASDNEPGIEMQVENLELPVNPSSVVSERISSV
pKi: −log10 of the molar value.

Completed entries (count: 3):
CCN1CCC[C@H]1CNC(=O)c1c(O)c(Cl)cc(Cl)c1OC [Raciopride] :: < 6.00
CN1CC2c3ccccc3Oc3ccc(Cl)cc3C2C1 (stereo not shown) [ORG5222] :: > 9.00
CCNC(=O)N1CCN(CCCC(c2ccc(F)cc2)c2ccc(F)cc2)CC1 [Amperozide] :: < 6.00

Entry Cc1nc2c(C)cccn2c(=O)c1CCN1CCC(c2noc3cc(F)ccc23)CC1 [Ocaperidone] : reported pKi = ?
7.00 to 8.00
